Molecular target: serotonin 5-HT3 receptor (Cavia porcellus)
Construct: Longitudinal muscle samples of about 20 mm were prepared from the ileum of Hartley male guinea pigs; from tissue; host or cells: guinea pig (Hartley, male) ileum longitudinal muscle
Assay: Serotonin 5-HT3 receptor antagonism, inhibition of 5-HT-induced contraction of guinea pig ileum longitudinal muscle
Format: cell-based
Conditions: inhibition ratio of contraction by 10 μM serotonin 5-HT after treatment with test compound 10 μM; Hartley guinea pig ileum
Classify as follows. Reported inhibition at 10 µM greater than or equal to 80%: yes (1). Reported inhibition at 10 µM below: no (0).

C=CC[N+]1(C)CCN(c2nc3cc(Cl)ccc3o2)CC1 [Example 2] :: yes (1)
Nc1cc2oc(N3CCNCC3)nc2cc1Cl [Example 10] :: yes (1)
CN1CCN(c2nc3cc4ccccc4cc3o2)CC1 [B, reference compound] :: yes (1)
C=CC[N+]1(C)CCN(c2nc3cc(C)ccc3o2)CC1.[Br-] [Example 25] :: yes (1)
Cc1cc(C)c2oc(N3CCNCC3)nc2c1 [Example 13] :: yes (1)
Cc1cc(Cl)cc2nc(N3CCCN(C)CC3)oc12 [Example 37] :: yes (1)
CN1CCN(c2nc3cc(Cl)ccc3o2)CC1 [Example 1] :: yes (1)
COc1ccc2oc(N3CCN(C)CC3)nc2c1 [A, reference compound] :: no (0)
C=CC[N+]1(C)CCN(c2nc3cc(Cl)c(N)cc3o2)CC1.[Br-] [Example 7] :: no (0)
CN1CCN(c2nc3c(ccc4ccccc43)o2)CC1 [Example 21] :: yes (1)

----------
Target: serotonin 5-HT3 receptor (Cavia porcellus)
Construct: Longitudinal muscle samples of about 20 mm were prepared from the ileum of Hartley male guinea pigs; from tissue; host or cells: guinea pig (Hartley, male) ileum longitudinal muscle
Sequence (O70212 20-490): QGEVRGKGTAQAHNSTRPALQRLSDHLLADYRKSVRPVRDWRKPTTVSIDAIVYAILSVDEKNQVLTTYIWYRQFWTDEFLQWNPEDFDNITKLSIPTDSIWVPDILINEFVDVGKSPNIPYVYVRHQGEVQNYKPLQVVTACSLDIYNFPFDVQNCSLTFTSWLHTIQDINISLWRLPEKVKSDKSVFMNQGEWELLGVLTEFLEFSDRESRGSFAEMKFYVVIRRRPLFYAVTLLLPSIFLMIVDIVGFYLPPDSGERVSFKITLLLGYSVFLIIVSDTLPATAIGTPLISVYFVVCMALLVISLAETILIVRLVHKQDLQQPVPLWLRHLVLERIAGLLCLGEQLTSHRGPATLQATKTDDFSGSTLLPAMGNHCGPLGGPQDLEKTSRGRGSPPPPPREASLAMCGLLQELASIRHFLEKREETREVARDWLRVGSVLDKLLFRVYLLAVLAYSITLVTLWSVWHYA
Assay: Serotonin 5-HT3 receptor antagonism, inhibition of 5-HT-induced contraction of guinea pig ileum longitudinal muscle
Assay type: cell-based
Settings: inhibition ratio of contraction by 10 μM serotonin 5-HT after treatment with test compound 10 μM; Hartley guinea pig ileum
Measured property: inhibition at 10 µM (%)

Cc1cc(Cl)cc2nc(N3CCN(C)CC3)oc12 :: 85
CN1CCN(c2nc3cc(Cl)c(N)cc3o2)CC1 :: 95
c1ccc2oc(N3CCNCC3)nc2c1 :: 75
Cc1cc(C)c2oc(N3CCCN(C)CC3)nc2c1 :: 96
CN1CCCN(c2nc3c(ccc4ccccc43)o2)CC1 :: 89

Just for reference, patent US6867226B2 is where these values come from.
